Ref: ChEMBL document CHEMBL3817734

Listed here: items and their measured IC50.
Tested on: RBL-2H3
Assay Procedure: Anti-allergic activity in RBL2H3 cells assessed as inhibition of anti-DNP-IgE-induced degranulation incubated for 20 mins followed by DNP-labeled human serum albumin addition measured after 1 hr by beta-hexosaminidase release assay
Format: functional, cell-based
Condition Info: Rattus norvegicus
Measured Parameter: IC50 (µM)

# Molecule, Target, Unit Of Measure, Value Measured
records = [
    ("CCCOC(=O)c1ccc(O)c(OC)c1", "RBL-2H3", "µM", 294),
    ("COc1cc(C(=O)OC(C)C)ccc1O", "RBL-2H3", "µM", 415),
    ("COC(=O)c1ccc(O)c(OC)c1 [METHYL VANILLATE]", "RBL-2H3", "µM", 640),
    ("CCCCOC(=O)c1ccc(O)c(OC)c1", "RBL-2H3", "µM", 198),
]

###

Test system: RBL-2H3
Assay Procedure: Anti-allergic activity in RBL2H3 cells assessed as inhibition of anti-DNP-IgE-induced degranulation at 30 to 300 uM incubated for 20 mins followed by DNP-labeled human serum albumin addition measured after 1 hr by beta-hexosaminidase release assay
Assay type: functional, cell-based
Condition Info: Rattus norvegicus
Calls of active or inactive are those of the source. No cut-off for these calls is given here.
Possible outcomes: active, inactive

# Item Smiles, Classification
records = [
    ("CCCCOC(=O)c1ccc(OC)c(O)c1", "active"),
    ("CCCCOC(=O)c1ccccc1", "inactive"),
    ("CCCOC(=O)Cc1ccc(O)c(OC)c1", "inactive"),
    ("CCCCOC(=O)c1ccc(OC)cc1", "inactive"),
    ("CCCCOC(=O)c1cccc(O)c1", "active"),
    ("CCCCOC(=O)c1cccc(OC)c1", "inactive"),
    ("CCCCOC(=O)c1ccc(O)cc1", "active"),
    ("CCOC(=O)CCc1ccc(O)c(OC)c1", "inactive"),
]
